# System: T1, human plasmin (human), P00747
# T1 chain: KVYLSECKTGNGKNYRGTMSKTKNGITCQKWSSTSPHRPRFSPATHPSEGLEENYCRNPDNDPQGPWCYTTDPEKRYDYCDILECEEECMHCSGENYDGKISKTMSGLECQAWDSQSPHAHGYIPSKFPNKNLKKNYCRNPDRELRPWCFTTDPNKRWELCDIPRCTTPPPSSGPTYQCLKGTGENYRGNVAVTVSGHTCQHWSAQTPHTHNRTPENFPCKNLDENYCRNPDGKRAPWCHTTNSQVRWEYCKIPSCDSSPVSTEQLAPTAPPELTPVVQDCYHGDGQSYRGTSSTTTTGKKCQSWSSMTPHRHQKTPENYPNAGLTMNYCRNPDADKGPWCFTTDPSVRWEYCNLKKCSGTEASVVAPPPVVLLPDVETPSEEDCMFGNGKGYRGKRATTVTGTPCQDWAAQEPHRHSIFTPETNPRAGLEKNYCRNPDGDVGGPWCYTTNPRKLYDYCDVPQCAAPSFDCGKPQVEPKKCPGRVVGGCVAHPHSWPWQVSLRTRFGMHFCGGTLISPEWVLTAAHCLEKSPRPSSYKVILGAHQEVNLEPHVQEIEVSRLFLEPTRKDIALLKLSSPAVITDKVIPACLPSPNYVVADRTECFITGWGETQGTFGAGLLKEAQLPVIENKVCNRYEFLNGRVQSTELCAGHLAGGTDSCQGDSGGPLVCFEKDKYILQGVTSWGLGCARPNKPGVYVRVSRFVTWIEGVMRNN
# Procedure Summary: competitive protease inhibition assay (selectivity panel), human plasmin, Ac-RM(O2)YR-pNA
Measurement Label: pKi
Scale for pKi: -log10 of concentration given in mol/L; no unit attached.

For DGGVCPKILKKCRRDSDCPGACICRATRFCGSGS (modifications not checked) [cMCoTI-fxL5] , write its pKi. 7.51
